The reported numbers originate from the Deep4Chem optical property database.

test-method-notes: solvent given as SMILES
conditions-used: in CN(C)C=O
API: label(entry) gives label 1 if the entry's emission maximum is strictly smaller than 500 nm; on equality or larger values it gives label 0.

[[record]]
molecule = "COCCOc1cc(C=O)c(OCCOC)cc1C=O"
discrete_label = "label 1"

[[record]]
molecule = "c1ccc(C2CCN3COc4c5ccccc5c5c6c7c(c2c3c46)C(c2ccccc2)CCN7CO5)cc1 (centres undefined)"
discrete_label = "label 0"

[[record]]
molecule = "Cc1ccc(C(=O)/C=C2\\C(=O)Nc3ccccc32)cc1C"
discrete_label = "label 1"

[[record]]
molecule = "CCCCNc1ccc(NCCCC)c2c1C(=O)c1ccccc1C2=O"
discrete_label = "label 0"

[[record]]
molecule = "C=CCNS(=O)(=O)c1ccc2c(c1)C(=O)/C(=C1\\Sc3ccc(S(=O)(=O)NCC=C)cc3C1=O)S2"
discrete_label = "label 0"

[[record]]
molecule = "COc1ccc(/C=N/c2cc(C(C)C)c(O)cc2C)cc1"
discrete_label = "label 1"

[[record]]
molecule = "COc1cc(N(c2ccccc2)c2ccc(C=C(C#N)C#N)c(OC)c2)ccc1C=C(C#N)C#N"
discrete_label = "label 0"

[[record]]
molecule = "CCN(CC)c1ccc(-c2nc(Oc3ccc(-c4nc5cc([N+](=O)[O-])ccc5[nH]4)cc3)nc(Oc3ccc(-c4nc5cc([N+](=O)[O-])ccc5[nH]4)cc3)n2)cc1"
discrete_label = "label 1"


---

test-method-notes: solvent given as SMILES
conditions-used: in ClCCl
Below is a list of entries, each paired with its recorded emission maximum value.
endpoint-name: emission maximum

[[record]]
molecule = "CC1=CC(C)=[N+]2C1=C(c1ccc(-c3ccc(OS(=O)(=O)c4ccc([N+](=O)[O-])cc4[N+](=O)[O-])cc3)s1)c1c(C)cc(C)n1[B-]2(F)F"
endpoint_name = "emission maximum"
reported_value = "528 nm"

[[record]]
molecule = "CCCCC(CC)COc1ccc2nc(-c3ccc(-c4cccs4)s3)sc2c1 (centres undefined)"
endpoint_name = "emission maximum"
reported_value = "438 nm"

[[record]]
molecule = "Cc1ccc(C(=O)c2c(C)c3ccc4cccc5c6cccc7ccc2c(c76)c3c45)cc1"
endpoint_name = "emission maximum"
reported_value = "450 nm"

[[record]]
molecule = "COc1ccc(N(c2ccc(OC)cc2)c2ccc(-c3ccc4nc5ccccc5c(=O)n4c3)cc2)cc1"
endpoint_name = "emission maximum"
reported_value = "538 nm"


---

test-method-notes: solvent given as SMILES
conditions-used: in ClCCl
endpoint-name: emission maximum (nm)

[[record]]
compound = "COc1cccc2cc(C)c3c4ccccc4n(C)c3c12"
endpoint_name = "emission maximum"
reported_value = 380

[[record]]
compound = "Cc1ccc2ccc3c(C)ccc4ccc1c2c43"
endpoint_name = "emission maximum"
reported_value = 382

[[record]]
compound = "Fc1c(F)c(F)c([B-]2(c3c(F)c(F)c(F)c(F)c3F)Oc3c(ccc4c5c(ccc34)C=[N+](c3ccccc3)[B-](c3c(F)c(F)c(F)c(F)c3F)(c3c(F)c(F)c(F)c(F)c3F)O5)C=[N+]2c2ccccc2)c(F)c1F"
endpoint_name = "emission maximum"
reported_value = 580

[[record]]
compound = "CCOC(=O)c1c(-c2cc3c(ccc4ccccc43)oc2=O)nn(-c2cccc(Cl)c2)c1C(=O)OCC"
endpoint_name = "emission maximum"
reported_value = 442

[[record]]
compound = "CC(C)(C)NC(=O)c1ccc2ccc3cccc4c3c2c1c1c2ccccc2c2ccccc2c41"
endpoint_name = "emission maximum"
reported_value = 425

[[record]]
compound = "O=C(N/N=C/c1ccccc1O)c1ccccc1"
endpoint_name = "emission maximum"
reported_value = 392

[[record]]
compound = "COc1c(C(C)=O)c(=O)oc2cc(N(C)C)ccc12"
endpoint_name = "emission maximum"
reported_value = 419

[[record]]
compound = "CCCCCCOc1ccc(C#Cc2ccc(-c3ccc(-c4ccc(C#Cc5ccc(OCCCCCC)c(OCCCCCC)c5)s4)c4nsnc34)s2)cc1OCCCCCC"
endpoint_name = "emission maximum"
reported_value = 649

[[record]]
compound = "CN(C)c1ccc(C2=C3C=C(c4ccc(C=O)cc4)S[C@]34c3ccccc3[C@H]2c2ccccc24)cc1"
endpoint_name = "emission maximum"
reported_value = 645

[[record]]
compound = "CC(C)(C)c1ccc2c(c1)c1cc(C(C)(C)C)ccc1n2-c1ccc(N(c2ccc(-c3ccc4c(c3)C(C)(C)c3cc(-c5ccc(N(c6ccc(-n7c8ccc(C(C)(C)C)cc8c8cc(C(C)(C)C)ccc87)cc6)c6ccc(-n7c8ccc(C(C)(C)C)cc8c8cc(C(C)(C)C)ccc87)cc6)cc5)ccc3-4)cc2)c2ccc(-n3c4ccc(C(C)(C)C)cc4c4cc(C(C)(C)C)ccc43)cc2)cc1"
endpoint_name = "emission maximum"
reported_value = 443

[[record]]
compound = "CC1=CC(c2ccc3cc(N(C)C)ccc3c2)=[O+][B-](F)(F)O1"
endpoint_name = "emission maximum"
reported_value = 574

[[record]]
compound = "Brc1ccc(N(c2ccc(/C=C/c3ccncn3)cc2)c2ccc(/C=C/c3ccncn3)cc2)cc1"
endpoint_name = "emission maximum"
reported_value = 555

[[record]]
compound = "CCN1C(=O)C(C2C(=O)c3c4ccccc4cc4cc5ccccc5c2c34)C(=O)N(CC)C1=S (stereo unspecified)"
endpoint_name = "emission maximum"
reported_value = 582

[[record]]
compound = "c1ccc([B-]23NC(C4CCCCC4)=Nc4cccc([n+]42)N=C(C2CCCCC2)N3)cc1"
endpoint_name = "emission maximum"
reported_value = 456

[[record]]
compound = "COc1ccc(-c2cc(-c3ccccc3)nn2C)cc1"
endpoint_name = "emission maximum"
reported_value = 333

[[record]]
compound = "CC(C)c1cccc(C(C)C)c1N1C(=O)c2cccc3c(Oc4ccc(C(C)(C)C)cc4)ccc(c23)C1=O"
endpoint_name = "emission maximum"
reported_value = 434

[[record]]
compound = "CCCCN1C(=O)c2cc(Oc3ccc(C(C)(C)C)cc3)c3c4c(Oc5ccc(C(C)(C)C)cc5)cc5c(=O)[nH]/c(=C\\c6ccccn6)c6cc(Oc7ccc(C(C)(C)C)cc7)c(c7c(Oc8ccc(C(C)(C)C)cc8)cc(c2c37)C1=O)c4c56"
endpoint_name = "emission maximum"
reported_value = 652

[[record]]
compound = "O=C(/C=C/c1ccc(O)c(O)c1)O[C@H](Cc1ccc(O)c(O)c1)C(=O)O"
endpoint_name = "emission maximum"
reported_value = 396

[[record]]
compound = "O=[N+]([O-])c1ccc([N+]2=Cc3ccc4c5c(ccc4c3O[B-]2(c2ccccc2)c2ccccc2)C=[N+](c2ccc([N+](=O)[O-])cc2)[B-](c2ccccc2)(c2ccccc2)O5)cc1"
endpoint_name = "emission maximum"
reported_value = 642

[[record]]
compound = "COc1cc2c3sc4ccccc4c3c3cncnc3c2c(OC)c1OC"
endpoint_name = "emission maximum"
reported_value = 426

[[record]]
compound = "O=c1c2cc(C#Cc3ccc(Cl)cc3)ccc2nc2ccc(C#Cc3ccc(Cl)cc3)cn12"
endpoint_name = "emission maximum"
reported_value = 478

[[record]]
compound = "CCOC(=O)C1=C(C(=O)OCC)C2(c3ccccc3-c3ccccc32)[C@@H](c2ccc(Cl)cc2)C=C2c3cc(OC)c(OC)cc3CCN21"
endpoint_name = "emission maximum"
reported_value = 445

[[record]]
compound = "CC(C)(C)c1cc(-c2c3cc(c(-c4cc(C(C)(C)C)cc(C(C)(C)C)c4)c4ccc([nH]4)c(-c4ccc(Br)cc4)c4nc(c(-c5ccc(Br)cc5)c5ccc2[nH]5)C=C4)N=C3)cc(C(C)(C)C)c1"
endpoint_name = "emission maximum"
reported_value = 741

[[record]]
compound = "CN(C)c1cccc(/C=C/c2ncc(-c3ccc(OCc4ccccc4)c(OCc4ccccc4)c3)o2)c1"
endpoint_name = "emission maximum"
reported_value = 490

[[record]]
compound = "c1ccc(N(c2ccccc2)c2ccc(-c3ccncn3)cc2)cc1"
endpoint_name = "emission maximum"
reported_value = 482

[[record]]
compound = "F[B-]1(F)OC(c2ccc(C(F)(F)F)cc2)=Cc2cc(Cl)nc[n+]21"
endpoint_name = "emission maximum"
reported_value = 426

[[record]]
compound = "Cc1ccc2nc3cc4c(cc3c(-c3ccccc3)c2c1)[Si](C)(C)O[Si]4(C)C"
endpoint_name = "emission maximum"
reported_value = 504

[[record]]
compound = "CN(C)c1ccc(-c2ncnc3ccccc23)cc1"
endpoint_name = "emission maximum"
reported_value = 490

[[record]]
compound = "CC1=CC(C)=[N+]2C1=C(C)c1cccn1[B-]2(F)F"
endpoint_name = "emission maximum"
reported_value = 500

[[record]]
compound = "COCCOCCOCN1C(=O)c2ccc3c(-c4ccccc4)c4c5ccc6c7c(ccc(c(-c8ccccc8)c4c4ccc(c2c34)C1=O)c75)C(=O)N(COCCOCCOC)C6=O"
endpoint_name = "emission maximum"
reported_value = 695

[[record]]
compound = "CCCCCCOc1cc(N(CC)CC)ccc1/C=C(\\C#N)c1ccc(/C=C/C(=C(C#N)C#N)c2ccc(N(c3ccccc3)c3ccccc3)cc2)s1"
endpoint_name = "emission maximum"
reported_value = 750

